From various publications: Kd for UniProtKB P08191.
Sequence (P08191 whole entry): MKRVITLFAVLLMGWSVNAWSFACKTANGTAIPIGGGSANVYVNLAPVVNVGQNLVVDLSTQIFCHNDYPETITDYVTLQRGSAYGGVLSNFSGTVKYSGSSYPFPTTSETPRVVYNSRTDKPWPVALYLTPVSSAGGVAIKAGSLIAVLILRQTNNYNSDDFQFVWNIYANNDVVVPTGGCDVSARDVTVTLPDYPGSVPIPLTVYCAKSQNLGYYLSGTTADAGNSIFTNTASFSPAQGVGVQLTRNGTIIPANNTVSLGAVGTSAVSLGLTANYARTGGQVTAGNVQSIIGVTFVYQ
endpoint: Kd (nM)

>>> reported_measurement("N#Cc1c(F)c(F)c(-c2ccc(O[C@H]3O[C@H](CO)[C@@H](O)[C@H](O)[C@@H]3O)c(Cl)c2)c(F)c1F")
22.1

P: CCCCCCCO[C@H]1O[C@H](CO)[C@@H](O)[C@H](O)[C@@H]1O
Q: OCC#Cc1ccc(O[C@H]2O[C@H](CO)[C@@H](O)[C@H](O)[C@@H]2O)cc1
stdin: Return label of the item with the larger Kd. Candidates: P , Q . # reply format: chosen label
stdout: P
(P: 17.1 nM, Q: 0.65 nM)
